# Assayed target: MMP-2 (Homo sapiens, UniProt P08253)
# Construct: made in house; provided by Dr. Gregory Goldberg, Washington University
# Sequence (P08253 110-660): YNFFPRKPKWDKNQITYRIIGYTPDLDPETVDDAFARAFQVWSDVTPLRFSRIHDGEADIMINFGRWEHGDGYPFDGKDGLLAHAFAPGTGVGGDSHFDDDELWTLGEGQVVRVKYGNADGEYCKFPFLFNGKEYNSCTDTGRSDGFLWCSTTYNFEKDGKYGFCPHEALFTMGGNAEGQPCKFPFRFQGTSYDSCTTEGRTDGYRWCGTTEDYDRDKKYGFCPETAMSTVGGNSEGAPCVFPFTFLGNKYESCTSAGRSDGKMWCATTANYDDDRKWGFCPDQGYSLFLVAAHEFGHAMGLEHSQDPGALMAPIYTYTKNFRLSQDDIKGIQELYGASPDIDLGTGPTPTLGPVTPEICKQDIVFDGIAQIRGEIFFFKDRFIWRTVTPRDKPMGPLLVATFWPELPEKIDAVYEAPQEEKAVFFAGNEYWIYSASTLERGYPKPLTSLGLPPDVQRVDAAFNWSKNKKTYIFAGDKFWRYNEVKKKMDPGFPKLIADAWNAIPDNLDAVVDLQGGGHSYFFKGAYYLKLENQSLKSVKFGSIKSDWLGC
# Assay comment: biochemical
# Test parameters: recombinant human MMP-2, MCA peptide substrate 4 μM, pH 7.5, room temperature; read-out: MMP-2 IC50
pIC50: −log10 of the molar value.
The compounds listed here are annotated with their pIC50.
Endpoint name: pIC50

INSERT INTO assay_data (sample_smiles, rel, reported_result) VALUES
  ('COCCN(CCOC)CC(=O)N1CCC(C(=O)NO)(S(=O)(=O)c2ccc(Oc3ccc(C(F)(F)F)cc3)cc2)CC1', '=', 9.52),
  ('O=C(Cc1ccccc1)C1CCN(c2ccc(S(=O)(=O)C3(C(=O)NO)CCOCC3)cc2)CC1', '=', 7.15),
  ('O=C(NO)C1(S(=O)(=O)c2ccc(N3CCN(S(=O)(=O)c4ccccc4C(F)(F)F)CC3)cc2)CCOCC1', '=', 7.06),
  ('Cc1cccc(C(=O)C2CCN(c3ccc(S(=O)(=O)C4(C(=O)NO)CCOCC4)cc3)CC2)c1', '=', 6.80),
  ('O=C(CCc1cnc[nH]1)N1CCC(C(=O)NO)(S(=O)(=O)c2ccc(Oc3ccc(OC(F)(F)F)cc3)cc2)CC1', '>', 10.00),
  ('O=C(NO)C1(S(=O)(=O)c2ccc(N3CCN(c4ccccc4)CC3)cc2)CCN(C2CC2)CC1', '=', 8.27),
  ('CCCCS(=O)(=O)N1CC(Oc2ccc(S(=O)(=O)C3(C(=O)NO)CCOCC3)cc2)C1', '=', 7.37),
  ('O=C(CCCCNCc1ccccn1)N1CCC(C(=O)NO)(S(=O)(=O)c2ccc(Oc3ccc(C(F)(F)F)cc3)cc2)CC1', '>', 10.00);
